Reference source for all entries: patent US10590078B2

target: human sodium ion channel 1.7 (hNav1.7) (Homo sapiens, UniProt Q15858); assay: Blocking effect against sodium ion channel Nav1.7, IonFlux16 auto patch clamp in hNav1.7 HEK293 cells; assay type: cell-based; conditions: hNav1.7 HEK293 cells; inhibition of peak current after 50 seconds treatment; eight concentrations; read-out: IC50
Sequence (Q15858 whole entry): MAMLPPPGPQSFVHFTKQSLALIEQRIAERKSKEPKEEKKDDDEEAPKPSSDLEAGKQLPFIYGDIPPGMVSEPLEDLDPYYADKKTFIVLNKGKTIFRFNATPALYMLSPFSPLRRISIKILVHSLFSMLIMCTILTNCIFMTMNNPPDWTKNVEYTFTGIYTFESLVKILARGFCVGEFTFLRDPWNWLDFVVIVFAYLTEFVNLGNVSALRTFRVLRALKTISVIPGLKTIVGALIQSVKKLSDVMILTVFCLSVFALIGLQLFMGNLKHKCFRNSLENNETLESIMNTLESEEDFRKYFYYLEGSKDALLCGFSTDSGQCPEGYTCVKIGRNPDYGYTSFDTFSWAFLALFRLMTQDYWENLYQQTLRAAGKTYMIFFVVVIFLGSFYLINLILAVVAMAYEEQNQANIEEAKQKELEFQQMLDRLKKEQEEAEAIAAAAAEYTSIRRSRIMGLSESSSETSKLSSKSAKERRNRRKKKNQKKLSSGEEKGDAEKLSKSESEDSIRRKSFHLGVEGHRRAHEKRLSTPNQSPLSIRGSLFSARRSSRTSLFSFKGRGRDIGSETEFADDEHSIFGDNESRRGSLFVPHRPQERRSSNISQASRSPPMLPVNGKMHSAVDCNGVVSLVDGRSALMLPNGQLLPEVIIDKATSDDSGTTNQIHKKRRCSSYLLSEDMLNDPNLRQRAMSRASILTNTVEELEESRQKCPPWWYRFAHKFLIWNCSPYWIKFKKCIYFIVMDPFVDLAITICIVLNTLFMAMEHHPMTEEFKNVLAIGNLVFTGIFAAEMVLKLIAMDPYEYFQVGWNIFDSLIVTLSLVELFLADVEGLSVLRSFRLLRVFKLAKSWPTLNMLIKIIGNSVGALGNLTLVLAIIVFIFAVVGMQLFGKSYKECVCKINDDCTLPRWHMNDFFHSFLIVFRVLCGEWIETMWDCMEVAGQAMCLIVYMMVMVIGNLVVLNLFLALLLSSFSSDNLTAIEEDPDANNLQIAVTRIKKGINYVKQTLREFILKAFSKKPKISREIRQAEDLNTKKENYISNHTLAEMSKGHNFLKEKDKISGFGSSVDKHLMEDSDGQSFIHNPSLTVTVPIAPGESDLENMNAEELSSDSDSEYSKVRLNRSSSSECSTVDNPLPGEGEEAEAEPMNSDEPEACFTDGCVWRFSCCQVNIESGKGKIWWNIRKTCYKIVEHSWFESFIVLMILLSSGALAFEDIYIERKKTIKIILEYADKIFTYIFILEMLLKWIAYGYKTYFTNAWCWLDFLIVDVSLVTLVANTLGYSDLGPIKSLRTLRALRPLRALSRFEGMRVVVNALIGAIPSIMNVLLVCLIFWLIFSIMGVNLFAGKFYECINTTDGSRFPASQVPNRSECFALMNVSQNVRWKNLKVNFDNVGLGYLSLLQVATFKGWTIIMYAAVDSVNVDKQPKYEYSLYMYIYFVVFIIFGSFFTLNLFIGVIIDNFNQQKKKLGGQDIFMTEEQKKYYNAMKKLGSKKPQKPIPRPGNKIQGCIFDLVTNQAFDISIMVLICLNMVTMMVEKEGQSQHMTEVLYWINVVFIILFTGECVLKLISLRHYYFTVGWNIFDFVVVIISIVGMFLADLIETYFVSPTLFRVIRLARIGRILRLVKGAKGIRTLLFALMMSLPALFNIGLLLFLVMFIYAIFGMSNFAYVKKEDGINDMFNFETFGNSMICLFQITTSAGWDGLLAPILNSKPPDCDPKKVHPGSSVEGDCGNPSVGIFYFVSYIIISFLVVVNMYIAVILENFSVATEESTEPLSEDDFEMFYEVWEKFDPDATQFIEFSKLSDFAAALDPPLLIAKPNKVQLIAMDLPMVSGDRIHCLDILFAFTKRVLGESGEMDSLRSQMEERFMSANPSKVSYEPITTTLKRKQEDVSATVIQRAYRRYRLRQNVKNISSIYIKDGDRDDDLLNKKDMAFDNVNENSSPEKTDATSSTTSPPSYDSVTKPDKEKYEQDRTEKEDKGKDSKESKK
recorded.metric: IC50 (nM)

- item.smiles: "CS(=O)(=O)NC(=O)c1cc(Cl)c(-n2nc(-c3cnccc3F)c3ccccc32)cc1F"
  measurement.units: "nM"
  IC50: 970

1 = CS(=O)(=O)NC(=O)c1ccc(-n2cc(-c3ccc(F)cc3)c3cc(Cl)ccc32)nc1
2 = CS(=O)(=O)NC(=O)c1cc(Cl)c(-n2cc(-c3ccc(Cl)c(F)c3)c3cc(F)cnc32)cc1F
3 = COc1cc(F)ccc1-c1cn(-c2cc(F)c(C(=O)NS(C)(=O)=O)cc2Cl)c2ncc(Cl)cc12
4 = CS(=O)(=O)NC(=O)c1cc(Cl)c(-n2cc(-c3cc(F)cc(Cl)c3)c3cccnc32)cc1F
Please produce an ascending ranking of these compounds based on IC50. Provide the labels, sequenced as the question asks. 2, 3, 4, 1

====

target: UniProtKB Q15858; assay: Blocking effect against sodium ion channel Nav1.7, IonFlux16 auto patch clamp in hNav1.7 HEK293 cells; format: cell-based; conditions: hNav1.7 HEK293 cells; inhibition of peak current after 50 seconds treatment; eight concentrations; read-out: IC50
recorded.metric: IC50 (µM)

P = CS(=O)(=O)NC(=O)c1cc(Cl)c(-n2nc(-c3cc[nH]n3)c3cc(Cl)ccc32)cc1F
Q = CS(=O)(=O)NC(=O)c1cc(Cl)c(-n2cc(Cl)c3ccc(OCc4ccccc4)cc32)cc1F
R = CS(=O)(=O)NC(=O)c1cc(Cl)c(-n2cc(-c3ccc(F)cc3Cl)c3cc(F)cnc32)cc1F
S = CS(=O)(=O)NC(=O)c1cc(Cl)c(-n2nc(-c3cccc(C#N)c3)c3ccccc32)cc1F
Sort low-to-high on IC50, please. Provide the labels, sequenced as the question asks. R, S, Q, P

====

target: human sodium ion channel 1.7 (hNav1.7) (Homo sapiens); assay: Blocking effect against sodium ion channel Nav1.7, IonFlux16 auto patch clamp in hNav1.7 HEK293 cells; type: cell-based; details: hNav1.7 HEK293 cells; inhibition of peak current after 50 seconds treatment; eight concentrations; read-out: IC50
pIC50: −log10 of the molar value.
recorded.metric: pIC50

Some solved entries appear below for comparison.
- compound: "CS(=O)(=O)NC(=O)c1cc(Cl)c(-n2nc(-c3ccc(Cl)c(F)c3)c3cc(Cl)ccc32)cc1F [Example 80]"
  result.value: 7.10
- compound: "CS(=O)(=O)NC(=O)c1cc(Cl)c(-n2nc(-c3ccc(F)cc3)c3cc(F)ccc32)cc1F [Example 153]"
  result.value: 6.70
- compound: "CS(=O)(=O)NC(=O)c1cc(Cl)c(-n2nc(Cl)c3cc(OCc4ccc5ccccc5c4)ccc32)cc1F [Example 35]"
  result.value: 7.12

I = CS(=O)(=O)NC(=O)c1cc(Cl)c(-n2cc(-c3ccc(Cl)cc3)c3cc(Cl)ccc32)cc1F [Example 272]
II = CS(=O)(=O)NC(=O)c1cc(Cl)c(-n2nc(Cl)c3cc(-c4ccc(F)nc4F)ccc32)cc1F [Example 246]
Pick one: I or II . Which one has the lower reported pIC50? Please reply using the label of the selected record. II

A = CS(=O)(=O)NC(=O)c1cc(Cl)c(-n2nc(Cl)c3cc(F)ccc32)cc1F [Example 17]
B = CS(=O)(=O)NC(=O)c1cc(Cl)c(-n2nc(Cl)c3cc(OCc4ccc(F)cc4)ccc32)cc1F [Example 36]
Pick one: A or B . Which one has the lower reported pIC50? Please reply using the label of the selected record. A
(A: 6.32, B: 7.06)

P = CS(=O)(=O)NC(=O)c1ccc(-n2nc(-c3cccc(F)c3)c3cc(Cl)ccc32)c(F)c1 [Example 125]
Q = CS(=O)(=O)NC(=O)c1cc(Cl)c(-n2nc(Cl)c3cc(Br)ccc32)cc1F [Example 21]
Select the item with the higher value of pIC50 from the options P and Q listed. Please reply using the label of the selected record. Q

P = CS(=O)(=O)NC(=O)c1cc(Cl)c(-n2nc(-c3ccncc3)c3cc(Cl)ccc32)cc1F [Example 49]
Q = CS(=O)(=O)NC(=O)c1cc(Cl)c(-n2cc(-c3ccc(Cl)cc3)c3cc(Cl)cnc32)cc1F [Example 195]
Pick one: P or Q . Which one has the lower reported pIC50? Please reply using the label of the selected record. P
(P: 5.65, Q: 7.10)
